# Test system: N. gonorrhoeae WHO M
# method_description: Liquid broth MIC in Fastidious broth
# condition_description: Neisseria gonorrhoeae, read-out: Minimum Inhibitory Concentration, WHO M
measure: MIC

Bench note, N. gonorrhoeae WHO M: O=C(O)c1c(F)ccc2c1OB(O)[C@@H](NC(=O)C(NC(=O)N1CCN(S(=O)(=O)CCCNC(=O)[C@@H]3CCCN3)C1=O)c1cc(F)c(O)c(O)c1Cl)C2 (stereo partly drawn) , MIC reads 16 to 32 µg/mL

Bench note, N. gonorrhoeae WHO M: O=C(NCCCN1CCN(C(=O)N[C@@H](C(=O)N[C@H]2Cc3ccc(F)c(C(=O)O)c3OB2O)c2cc(F)c(O)c(O)c2Cl)C(=O)C1=O)c1ccncc1 , MIC reads 16 to 32 µg/mL

Bench note, N. gonorrhoeae WHO M: O=C(NCCS(=O)(=O)N1CCN(C(=O)N[C@@H](C(=O)N[C@H]2Cc3ccc(F)c(C(=O)O)c3OB2O)c2cc(F)c(O)c(O)c2Cl)C1=O)Nc1ccncc1 , MIC reads 16 to 32 µg/mL

All figures here come from patent US20240270762A1.
